Kindly state Firefly ERalpha transient, cmpd/DMSO (mean) for each of the entries shown.
Target: ERα (Homo sapiens)
Construct: expressed in transfected cells
Sequence (P03372 1-595): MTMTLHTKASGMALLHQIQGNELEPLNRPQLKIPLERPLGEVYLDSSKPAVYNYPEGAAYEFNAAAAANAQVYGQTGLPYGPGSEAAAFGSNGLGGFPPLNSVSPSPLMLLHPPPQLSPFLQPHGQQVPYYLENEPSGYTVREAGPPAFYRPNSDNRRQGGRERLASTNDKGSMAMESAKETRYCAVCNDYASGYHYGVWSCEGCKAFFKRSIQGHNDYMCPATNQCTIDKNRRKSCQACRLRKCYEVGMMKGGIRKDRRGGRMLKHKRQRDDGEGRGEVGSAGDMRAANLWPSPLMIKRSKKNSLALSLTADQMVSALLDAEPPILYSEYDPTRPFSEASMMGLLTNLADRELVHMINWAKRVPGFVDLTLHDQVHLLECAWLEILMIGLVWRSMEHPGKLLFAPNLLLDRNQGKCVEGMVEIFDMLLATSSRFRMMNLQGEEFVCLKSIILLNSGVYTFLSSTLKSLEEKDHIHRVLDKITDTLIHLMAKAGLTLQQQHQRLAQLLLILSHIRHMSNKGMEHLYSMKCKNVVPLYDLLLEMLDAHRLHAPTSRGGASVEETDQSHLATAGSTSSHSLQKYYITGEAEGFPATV
Experiment: Counterscreening, Firefly signal with ERα transient transfection (Firefly_ERa)
Format: cell-based
Details: Table 15; 2 uM
A bare number is all that is needed in reply.

Request: Name the recorded Firefly ERalpha transient, cmpd/DMSO (mean) for "Cc1ccc(NC(=O)c2noc3c2CC(C)(C)CC3)cc1C" .
Response: 2.4

Request: Do the same for CCOC(=O)c1cnc2c(C)cc(C)cc2c1NCCCN1CCCCC1 [Compound Z19] please
Response: 1.9

Request: Do the same for "COc1cccc(-c2noc(Cn3ncccc3=O)n2)c1" please
Response: 2.4

Request: Do the same for "CCOC(=O)c1cnc2c(C)cc(C)cc2c1NCCCN" please
Response: 1.5

Request: Do the same for "CS(=O)(=O)Nc1ccc([N+](=O)[O-])c2nonc12" please
Response: 1.2

Request: Do the same for "Cc1ccc(NC(=O)c2n[nH]c3c2CCCCC3)cc1C" please
Response: 1.6

Request: Do the same for CCOC(=O)c1cnc2c(C)cc(C)cc2c1NCCCN1CCCCC1 [Compound Z10] please
Response: 4.2

Request: Do the same for "CCOC(=O)c1cnc2c(C)cc(C)cc2c1N1CCC(N(C)C)CC1" please
Response: 1.1

Request: Do the same for "COc1cccc(-c2noc(Cn3ncc(Cl)cc3=O)n2)c1" please
Response: 1.5

Request: Do the same for CCOC(=O)c1cnc2c(C)cc(C)cc2c1NCCCN1CCCCC1 [Compound Z17] please
Response: 1.7

Request: Do the same for "CCOC(=O)c1cnc2c(C)cc(C)cc2c1N1CCC(O)CC1" please
Response: 1.5

Request: Do the same for CCOC(=O)c1cnc2c(C)cc(C)cc2c1NCCCN1CCCCC1 [Compound Z11] please
Response: 2.1

Request: Do the same for CCOC(=O)c1cnc2c(C)cc(C)cc2c1NCCCN1CCCCC1 [Compound Z8] please
Response: 2.2

Request: Do the same for "CCOC(=O)c1cnc2c(C)cc(C)cc2c1N1CCC(C)CC1" please
Response: 1.3

Request: Do the same for "CC(=O)Nc1ccc(NS(C)(=O)=O)c2nonc12" please
Response: 0.9

Request: Do the same for "CCOC(=O)c1cnc2c(C)cc(C)cc2c1NCCCOC" please
Response: 1.4

Request: Do the same for "COc1cccc(-c2noc(Cn3ncc4ccccc4c3=O)n2)c1" please
Response: 2.0

Request: Do the same for CCOC(=O)c1cnc2c(C)cc(C)cc2c1NCCCN1CCCCC1 [Compound Z12] please
Response: 2.4

Request: Do the same for "CCOC(=O)c1cnc2c(C)cc(C)cc2c1NCCCN1CCCC1" please
Response: 3.0

Request: Do the same for "CCOC(=O)c1cnc2c(C)cc(C)cc2c1NCCCO" please
Response: 0.9
